# EXPERIMENTAL TARGET: Gonadotropin-releasing hormone receptor (Homo sapiens, UniProt P30968)
# ASSAY COMMENT: Antagonist activity at human recombinant GnRH receptor expressed in HEK293 cells assessed as reduction in (D-Trp6)-GnRH-stimulated IP production by whole cell assay
# Format: functional, cell-based
pIC50: −log10 of the molar value.
MEASURED PARAMETER: pIC50

- SMILES REPRESENTATION: "CCn1cnc(CN2CCN(c3cccc4[nH]c(-c5ccc(C(C)(C)C)cc5)nc34)CC2)c1C"
  OBSERVED: 7.85
- SMILES REPRESENTATION: "Cc1nc(CN2CCN(c3cccc4[nH]c(-c5ccc(C(C)(C)C)cc5)nc34)CC2)cn1C"
  OBSERVED: 7.64
- SMILES REPRESENTATION: "CCc1nc(CN2CCN(c3cccc4[nH]c(-c5ccc(C(C)(C)C)cc5)nc34)CC2)c(C)n1CC"
  OBSERVED: 7.89
- SMILES REPRESENTATION: "Cc1nc(CN2CCN(c3cccc4[nH]c(-c5ccc(C(C)(C)C)cc5)nc34)CC2)c[nH]1"
  OBSERVED: 7.36

I = CCCCn1cnc(CN2CCN(c3cccc4[nH]c(-c5ccc(C(C)(C)C)cc5)nc34)CC2)c1C
II = CCCn1cc(CN2CCN(c3cccc4[nH]c(-c5ccc(C(C)(C)C)cc5)nc34)CC2)nc1C
Query string: Which of the two gives a bigger number for pIC50: I or II ? // caller expects the label of the chosen entry
Result string: II
(II: 7.37, I: 7.15)

* * *

# EXPERIMENTAL TARGET: CYP3A4 (Homo sapiens)
# Sequence (P08684 whole entry): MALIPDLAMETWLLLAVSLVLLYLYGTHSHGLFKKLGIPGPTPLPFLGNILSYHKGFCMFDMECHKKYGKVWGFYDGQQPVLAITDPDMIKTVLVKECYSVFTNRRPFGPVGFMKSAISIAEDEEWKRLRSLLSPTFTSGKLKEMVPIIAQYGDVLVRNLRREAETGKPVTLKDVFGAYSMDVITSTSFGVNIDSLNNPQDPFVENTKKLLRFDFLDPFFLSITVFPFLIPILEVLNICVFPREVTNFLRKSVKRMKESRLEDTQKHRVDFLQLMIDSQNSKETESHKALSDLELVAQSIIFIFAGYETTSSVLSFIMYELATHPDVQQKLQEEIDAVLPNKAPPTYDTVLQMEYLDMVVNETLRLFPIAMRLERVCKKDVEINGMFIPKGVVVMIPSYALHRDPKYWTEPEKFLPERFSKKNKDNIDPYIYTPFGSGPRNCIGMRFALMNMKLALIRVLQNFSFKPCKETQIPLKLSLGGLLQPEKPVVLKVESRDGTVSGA
# ASSAY COMMENT: Inhibition of CYP3A4 at 3 uM
# Type: ADME
MEASURED PARAMETER: inhibition at 3 µM (%)

- SMILES REPRESENTATION: "CCCn1cc(CN2CCN(c3cccc4[nH]c(-c5ccc(C(C)(C)C)cc5)nc34)CC2)nc1C"
  inhibition at 3 µM / %: 85
- SMILES REPRESENTATION: "CCCCn1cnc(CN2CCN(c3cccc4[nH]c(-c5ccc(C(C)(C)C)cc5)nc34)CC2)c1C"
  inhibition at 3 µM / %: 84
- SMILES REPRESENTATION: "Cc1nc(CN2CCN(c3cccc4[nH]c(-c5ccc(C(C)(C)C)cc5)nc34)CC2)cn1C"
  inhibition at 3 µM / %: 66
- SMILES REPRESENTATION: "Cc1nc(CN2CCN(c3cccc4[nH]c(-c5ccc(C(C)(C)C)cc5)nc34)CC2)c[nH]1"
  inhibition at 3 µM / %: 85
- SMILES REPRESENTATION: "CCn1cnc(CN2CCN(c3cccc4[nH]c(-c5ccc(C(C)(C)C)cc5)nc34)CC2)c1C"
  inhibition at 3 µM / %: 73
- SMILES REPRESENTATION: "CCn1cc(CN2CCN(c3cccc4[nH]c(-c5ccc(C(C)(C)C)cc5)nc34)CC2)c(=O)[nH]c1=O"
  inhibition at 3 µM / %: 74

* * *

# EXPERIMENTAL TARGET: Gonadotropin-releasing hormone receptor (Homo sapiens) (UniProt P30968)
# Sequence (P30968 whole entry): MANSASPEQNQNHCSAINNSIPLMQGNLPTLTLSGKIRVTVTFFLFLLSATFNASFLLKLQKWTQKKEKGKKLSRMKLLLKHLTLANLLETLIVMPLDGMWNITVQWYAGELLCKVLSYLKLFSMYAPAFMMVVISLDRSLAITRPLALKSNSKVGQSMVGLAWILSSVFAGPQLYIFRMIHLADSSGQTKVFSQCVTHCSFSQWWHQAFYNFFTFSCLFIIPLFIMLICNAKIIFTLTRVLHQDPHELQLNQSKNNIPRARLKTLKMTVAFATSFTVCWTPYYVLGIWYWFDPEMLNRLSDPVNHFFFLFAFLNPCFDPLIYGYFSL
# ASSAY COMMENT: Displacement of [125I]-(D-Trp6)-GnRH from human GnRH receptor at 50 nM
MEASURED PARAMETER: Activity (%)

- SMILES REPRESENTATION: "CC(C)(C)c1ccc(-c2nc3c(N4CCN(Cc5ccco5)CC4)cccc3[nH]2)cc1"
  UNIT ABBREV: "%"
  Activity: 12

1 = CC(C)(C)c1ccc(-c2nc3c(N4CCN(Cc5ccoc5)CC4)cccc3[nH]2)cc1
2 = CCn1nc(CN2CCN(c3cccc4[nH]c(-c5ccc(C(C)(C)C)cc5)nc34)CC2)cc1C
Query string: Out of 1 and 2 , name the one with the higher Activity. Use the label to indicate which entry you chose.
Result string: 2
(2: 32%, 1: 20%)

* * *

# ASSAY COMMENT: Half life in orchidectomized Sprague-Dawley rat at 30 mg/kg, po after 1 day
# Format: ADME, organism-based
# Design: dose 30 mg/kg, route oral
# COND: male, in vivo
MEASURED PARAMETER: half-life (h)
Response body: numeric value in h, unit text excluded.

Query string: Give half-life for the following molecule: `CCn1cnc(CN2CCN(c3cccc4[nH]c(-c5ccc(C(C)(C)C)cc5)nc34)CC2)c1C`
Result string: 3.7

* * *

# EXPERIMENTAL TARGET: Gonadotropin-releasing hormone receptor (Rattus norvegicus)
# Sequence (P30969 whole entry): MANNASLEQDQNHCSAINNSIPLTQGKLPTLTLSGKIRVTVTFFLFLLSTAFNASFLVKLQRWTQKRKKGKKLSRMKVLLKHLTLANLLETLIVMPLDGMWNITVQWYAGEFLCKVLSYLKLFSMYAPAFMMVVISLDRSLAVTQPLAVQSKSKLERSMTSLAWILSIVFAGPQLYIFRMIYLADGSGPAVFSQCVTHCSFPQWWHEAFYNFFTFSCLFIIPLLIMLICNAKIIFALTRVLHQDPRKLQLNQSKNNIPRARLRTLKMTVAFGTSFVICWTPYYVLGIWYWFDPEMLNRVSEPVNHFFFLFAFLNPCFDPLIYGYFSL
pIC50: −log10 of the molar value.
MEASURED PARAMETER: pIC50

Use these answered entries as a reference point.
- SMILES REPRESENTATION: "CCc1nc(CN2CCN(c3cccc4[nH]c(-c5ccc(C(C)(C)C)cc5)nc34)CC2)c(C)n1CC"
  OBSERVED: 7.31
- SMILES REPRESENTATION: "Cc1nc(CN2CCN(c3cccc4[nH]c(-c5ccc(C(C)(C)C)cc5)nc34)CC2)c[nH]1"
  OBSERVED: 7.55

P = CCCn1cc(CN2CCN(c3cccc4[nH]c(-c5ccc(C(C)(C)C)cc5)nc34)CC2)nc1C
Q = Cc1nc(C)c(CN2CCN(c3cccc4[nH]c(-c5ccc(C(C)(C)C)cc5)nc34)CC2)o1
R = CCc1nc(C)c(CN2CCN(c3cccc4[nH]c(-c5ccc(C(C)(C)C)cc5)nc34)CC2)o1
Query string: Sort (3 molecules) by pIC50: min first. The response must list the labels following the requested ordering.
Result string: Q, R, P
(Q: 6.13, R: 6.49, P: 7.39)

* * *

# EXPERIMENTAL TARGET: CYP2C9 (Homo sapiens)
# Sequence (P11712 whole entry): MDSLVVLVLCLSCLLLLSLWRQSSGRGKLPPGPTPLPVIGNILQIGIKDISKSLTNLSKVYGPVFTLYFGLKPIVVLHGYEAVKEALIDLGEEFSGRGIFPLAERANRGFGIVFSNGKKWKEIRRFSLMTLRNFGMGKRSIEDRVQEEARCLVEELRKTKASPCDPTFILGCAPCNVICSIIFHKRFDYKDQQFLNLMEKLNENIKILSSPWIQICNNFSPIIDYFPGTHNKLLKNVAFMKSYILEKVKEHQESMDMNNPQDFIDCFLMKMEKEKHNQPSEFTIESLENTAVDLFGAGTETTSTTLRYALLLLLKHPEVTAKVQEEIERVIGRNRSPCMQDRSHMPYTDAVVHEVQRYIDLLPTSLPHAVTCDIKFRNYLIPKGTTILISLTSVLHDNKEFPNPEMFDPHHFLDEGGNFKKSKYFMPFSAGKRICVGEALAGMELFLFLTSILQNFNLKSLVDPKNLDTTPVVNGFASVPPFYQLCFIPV
# ASSAY COMMENT: Inhibition of CYP2C9 at 3 uM
# Format: ADME
MEASURED PARAMETER: inhibition at 3 µM (%)

Please review the following examples before continuing.
- SMILES REPRESENTATION: "CCn1cc(CN2CCN(c3cccc4[nH]c(-c5ccc(C(C)(C)C)cc5)nc34)CC2)c(=O)[nH]c1=O"
  OBSERVED: 34
- SMILES REPRESENTATION: "Cc1nc(CN2CCN(c3cccc4[nH]c(-c5ccc(C(C)(C)C)cc5)nc34)CC2)c[nH]1"
  OBSERVED: 23
- SMILES REPRESENTATION: "CCCCn1cnc(CN2CCN(c3cccc4[nH]c(-c5ccc(C(C)(C)C)cc5)nc34)CC2)c1C"
  OBSERVED: 53

A = CCn1cnc(CN2CCN(c3cccc4[nH]c(-c5ccc(C(C)(C)C)cc5)nc34)CC2)c1C
B = Cc1nc(CN2CCN(c3cccc4[nH]c(-c5ccc(C(C)(C)C)cc5)nc34)CC2)cn1C
Query string: Compare inhibition at 3 µM: is it lower for A or for B ? Your answer should be the label attached to the chosen record.
Result string: B

* * *

# ASSAY COMMENT: Clearance in orchidectomized Sprague-Dawley rat at 1 mg/kg, iv after 1 day
# Format: ADME, organism-based
# Parameters: dose 1 mg/kg, route intravenous
# COND: male, in vivo
MEASURED PARAMETER: clearance (mL/min/kg)
Just the number please, in mL/min/kg, no unit attached.

Query string: Fill in reported clearance for this entry: `CCn1cnc(CN2CCN(c3cccc4[nH]c(-c5ccc(C(C)(C)C)cc5)nc34)CC2)c1C`
Result string: 134

* * *

# ASSAY COMMENT: Metabolic stability in rat liver microsomes assessed as half life
# Type: ADME, Microsome
MEASURED PARAMETER: half-life (min)

- SMILES REPRESENTATION: "CCCn1cc(CN2CCN(c3cccc4[nH]c(-c5ccc(C(C)(C)C)cc5)nc34)CC2)nc1C"
  half-life (min): 25
- SMILES REPRESENTATION: "CCc1nc(CN2CCN(c3cccc4[nH]c(-c5ccc(C(C)(C)C)cc5)nc34)CC2)c(C)n1CC"
  half-life (min): 12

I = CCn1cnc(CN2CCN(c3cccc4[nH]c(-c5ccc(C(C)(C)C)cc5)nc34)CC2)c1C
II = Cc1nc(CN2CCN(c3cccc4[nH]c(-c5ccc(C(C)(C)C)cc5)nc34)CC2)cn1C
III = CCn1cc(CN2CCN(c3cccc4[nH]c(-c5ccc(C(C)(C)C)cc5)nc34)CC2)c(=O)[nH]c1=O
Query string: Place the items in sequence of falling half-life. Answer by writing out the labels in the requested order.
Result string: I, II, III

meta.source: ChEMBL document CHEMBL1153337
